# targetOrTestSystem: T1, human PCSK9 (proprotein convertase subtilisin kexin type 9) (human, UniProt Q8NBP7 31-692)
# T1 construct: immobilized directly (ProteOn), biotinylated (Octet) or in solution, according to the assay; also called hPCSK9; PCSK9-AF647 (labelled form)
# assayRemarks: PCSK9:EGFA FRET, competitor EGFA peptide
So basically: is EC50 under 3 nM? Then class 1. Not under? Then class 0.

Study these solved cases before continuing.
Is it true that EC50 reported for 2451H01 (designed binder) MGVSDVPRDLEVVAATPTSLLISWDAPAAGYGYYRITYGETGGNSPVQEFTVPVSKGTATISGLKPGVDYTITVYAVEYDFPGSGYYHRPISINYRTEIDKPSQHHHHHH is less than 3 nM?
class 1

Is it true that EC50 reported for 2011H05(V23E) (designed binder) MGVSDVPRDLEVVAATPTSLLISWEPSSHAYGYYRITYGETGGNSPVQEFTVPVGVGTATISGLKPGVDYTITVYAVEYAFEGAGYYHRPISINYRTEIDKPSQHHHHHH is less than 3 nM?
class 0

Is it true that EC50 reported for 2381D04 (designed binder) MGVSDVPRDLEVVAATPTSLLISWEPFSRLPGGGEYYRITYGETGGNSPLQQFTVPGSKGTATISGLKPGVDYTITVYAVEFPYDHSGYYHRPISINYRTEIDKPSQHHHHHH is less than 3 nM?
class 1

Is it true that EC50 reported for 2382E09 (designed binder) MGVSDVPRDLEVVAATPTSLLISWDAPAEAYGYYRITYGETGGNSPVQEFTVPVSKGTATISGLKPGVDYTITVYAVEYDFPGSGYYHRPISINYRTEIDKPSQHHHHHH is less than 3 nM?
class 0

Is it true that EC50 reported for 2011B11 (designed binder) MGVSDVPRDLEVVAATPTSLLISWAPPSDAYGYYRITYGETGGNSPVQEFTVPIGKGTATISGLKPGVDYTITVYAVEYPYSHAGYYHRPISINYRTEIDKPSQHHHHHH is less than 3 nM?
class 1

Continuing:
Is it true that EC50 reported for 2451A10 (designed binder) MGVTDVPRDMEVVAATPTSLLISWQPPAVTYGYYRITYGETGGNSTLQQFTVPVYKGTATISGLKPGVDYTITVYAVEYPYDHSGYYHRPISINYRTEIDKPSQHHHHHH is less than 3 nM?
class 0

Is it true that EC50 reported for 2381A04 (designed binder) MGVSDVPRDLEVVAATPTSLLISWEPFSRLPGGGEYYRITYGETGGNSPLQQFTVPGSKGTATISGLKPGVDYTITVYAVEYPYPFSGYYHRPISINYRTEIDKPSQHHHHHH is less than 3 nM?
class 0

Is it true that EC50 reported for 2382F05 (designed binder) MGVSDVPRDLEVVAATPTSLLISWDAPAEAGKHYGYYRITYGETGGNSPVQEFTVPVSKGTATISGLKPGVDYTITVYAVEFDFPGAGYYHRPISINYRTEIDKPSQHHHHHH is less than 3 nM?
class 1
